Origin of values: patent US20240052027A1

# ASSAYED TARGET: T1, NHP-OTV16 peptide (SEQ ID NO:5) (Macaca mulatta, disulfide 1-18)
# T1 construct: cyclic
# T1 peptide: Propargyl-CYRPVDGLPPFKMEKTEC-NH2
# ASSAY DETAILS: peptide ELISA of B-cell clone supernatant
Bridge positions count the residues as written; N and C are the ends. * marks the point of attachment. Propargyl = C#CC*

[
  {
    "BINDER": "29B5-1 (antibody, V domains shown, Recombinant rabbit IgG with rabbit kappa light chain, made in HEK cells; Also tested as B-cell clone supernatant; also called monoclonal antibody 29B5-1) VH: QSLEESGGRLVTPGTPLTLTCTVSGIDLSSVTMGWVRQAPGKGLEYIGVITTIRTTYYASWVNGRFTISQTSTTVDLKMTSLTTEDTATYFCARDGDTTNTYGYYFDIWGPGTLVTVSL VL: AVVMTQTPASVEVAVGGTVTIKCQASQSISSYLAWYQQKPGQPPKLLIYKASTLASGVPSRFKGSGSGTQFTLTISGVQCDDAATYYCQQGYTGNNVDNIFGGGTEVVVK",
    "binding result": "binds"
  },
  {
    "BINDER": "9E4-1 (antibody, V domains shown, Recombinant rabbit IgG with rabbit kappa light chain, made in HEK cells; Also tested as B-cell clone supernatant; also called monoclonal antibody 9E4-1) VH: QSLEESGGRLVTPGTPLTLTCTVSGIDLSSVTMGWVRQAPGKGLEYIGVIVPRGATYYANWVKGRFTISKTSTTVDLKMTSLTTEDTATYFCARDGDTGNIYGYYFDIWGPGTLVTVSL VL: AYDMTQTPASVSEPVGGTVTIKCQASQSISTALAWYQQKSGQRPKLLIYDAWKLASGVSSRFKGSGSGTQFTLTISGVQCDDAATYYCQQGYSGNNVDNVFGGGTEVVVS",
    "binding result": "binds"
  },
  {
    "BINDER": "23B9-1 (antibody, V domains shown, Recombinant rabbit IgG with rabbit kappa light chain, made in HEK cells; Also tested as B-cell clone supernatant; also called monoclonal antibody 23B9-1) VH: QSVEESGGRPVTPGTPLTLTCTVSGIDLSRYAVDWVRQAPGKGLEWIGIILTSGKISYASWVKGRFTISKTSTTVDLKMTSLTTEDTATYFCARHFDLWGQGTLVTVSS VL: QVLTQTASPVSAAVGGTVTINCQSSQSVYNNNNLAWYQQKPGQPPKLLIYDSSKLESGVPSRFKGSGSGTQFTLIISDLECDDAATYYCAGGYSGVIASFGGGTEVVVK",
    "binding result": "binds"
  }
]
